Consider the following compounds and their measured concentration at 0.25 h readings.
# ASSAY INFO: Drug concentration in brain (unknown origin) at 2 mg/kg, iv measured after 15 mins
# Type: ADME, organism-based
# EXPERIMENTAL SETUP: read-out: Ct
// return the numeric value with its unit appended

# input compound: `CN(C)c1ccc(C2CCN(C(=O)Oc3cccc(N4CCS(=O)(=O)CC4)c3)CC2)cc1` ; wanted: its concentration at 0.25 h
1110 ng/mL

Now consider `O=C(Oc1cccc(N2CCS(=O)(=O)CC2)c1)N1CCC(c2ccc(OCCF)cc2)CC1` and answer again.
909 ng/mL

Now consider `O=C(Oc1cccc(N2CCS(=O)(=O)CC2)c1)N1CCC(c2ccc(F)cc2)CC1` and answer again.
1230 ng/mL

Now consider `O=C(Oc1cccc(N2CCOCC2)c1)N1CCC(c2ccc(F)cc2)CC1` and answer again.
508 ng/mL

* * *

Consider the following compounds and their measured IC50 readings.
# TARGET OR TEST SYSTEM: UniProtKB O00519
# Sequence (O00519 whole entry): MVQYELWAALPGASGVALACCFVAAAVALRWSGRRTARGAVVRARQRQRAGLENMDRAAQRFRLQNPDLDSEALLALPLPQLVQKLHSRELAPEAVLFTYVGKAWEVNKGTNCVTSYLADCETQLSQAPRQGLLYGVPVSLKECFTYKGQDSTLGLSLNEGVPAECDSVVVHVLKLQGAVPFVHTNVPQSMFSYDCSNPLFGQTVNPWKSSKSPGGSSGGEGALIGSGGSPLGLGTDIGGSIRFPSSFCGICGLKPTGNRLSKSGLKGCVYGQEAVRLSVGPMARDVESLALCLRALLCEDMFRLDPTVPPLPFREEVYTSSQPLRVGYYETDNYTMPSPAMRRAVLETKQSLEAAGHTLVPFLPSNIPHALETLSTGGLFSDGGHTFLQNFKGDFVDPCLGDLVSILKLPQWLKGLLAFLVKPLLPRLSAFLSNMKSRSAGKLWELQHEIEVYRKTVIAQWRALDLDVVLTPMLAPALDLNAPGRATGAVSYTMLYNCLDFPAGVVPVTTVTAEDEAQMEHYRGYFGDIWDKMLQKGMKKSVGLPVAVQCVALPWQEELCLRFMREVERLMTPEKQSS
# ASSAY INFO: Inhibition of human recombinant MBP-tagged FAAH expressed in Escherichia coli cells using AAMCA as substrate incubated for 15 mins followed by substrate addition and measured after every 20 mins for 4 hrs by fluorescence based assay
Give the quantity in nM, number only.

Look over these answered cases.
>>> print(df.to_string())
                                smiles_repr  obs_value
0  CN(C)c1ccc(C2CCN(C(=O)Oc3cccc(N4CCS(=O)(=O)CC4)c3)CC2)cc1        2.4
1  O=C(Oc1cccc(N2CCS(=O)(=O)CC2)c1)N1CCC(c2ccc(F)cc2)CC1         10
2  Cc1noc(C2CCN(C(=O)Oc3cccc(N4CCS(=O)(=O)CC4)c3)CC2)n1        147
3  O=C(Oc1cccc(N2CCS(=O)(=O)CC2)c1)N1CCC(O)(c2ccccc2)CC1        172
4  O=C(Oc1cccc(N2CCS(=O)(=O)CC2)c1)N1CCC(c2ccc(N3CCCC3)cc2)CC1        3.5
5  C[C@@H]1CN(c2ccc(F)cc2)CCN1C(=O)Oc1cccc(N2CCS(=O)(=O)CC2)c1       11.7

// map `CN(C)c1ccc(C2CCN(C(=O)Oc3cccc(N4CCOCC4)c3)CC2)cc1` to recorded IC50 (system: UniProtKB O00519)
31

Now consider `N#Cc1ccc(C2CCN(C(=O)Oc3cccc(N4CCS(=O)(=O)CC4)c3)CC2)cc1` and answer again.
22.7

Now consider `COc1ccc(N2CCN(C(=O)Oc3cccc(N4CCOCC4)c3)[C@H](C)C2)cc1` and answer again.
4.1

* * *

Consider the following compounds and their measured IC50 readings.
# TARGET OR TEST SYSTEM: Fatty-acid amide hydrolase 1 (Rattus norvegicus)
# Sequence (P97612 whole entry): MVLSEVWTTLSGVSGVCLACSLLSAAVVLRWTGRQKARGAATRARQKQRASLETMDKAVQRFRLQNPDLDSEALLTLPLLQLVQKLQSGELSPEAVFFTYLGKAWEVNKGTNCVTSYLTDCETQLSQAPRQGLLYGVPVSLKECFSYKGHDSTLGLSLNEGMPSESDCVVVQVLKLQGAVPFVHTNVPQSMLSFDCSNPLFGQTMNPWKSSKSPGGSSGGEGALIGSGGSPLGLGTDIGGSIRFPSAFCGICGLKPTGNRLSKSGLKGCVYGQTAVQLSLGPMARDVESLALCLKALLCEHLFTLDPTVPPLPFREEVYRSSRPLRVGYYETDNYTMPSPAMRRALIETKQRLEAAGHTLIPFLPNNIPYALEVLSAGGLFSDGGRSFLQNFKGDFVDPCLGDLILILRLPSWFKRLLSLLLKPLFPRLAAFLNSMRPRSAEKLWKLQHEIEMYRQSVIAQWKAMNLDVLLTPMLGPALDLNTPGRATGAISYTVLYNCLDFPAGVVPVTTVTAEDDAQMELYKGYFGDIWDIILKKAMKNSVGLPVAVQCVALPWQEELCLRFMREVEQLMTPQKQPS
# ASSAY INFO: Inhibition of rat recombinant His/GST-tagged FAAH expressed in Escherichia coli cells using AAMCA as substrate incubated for 15 mins followed by substrate addition and measured after every 20 mins for 4 hrs by fluorescence based assay
Give the quantity in µM, number only.

Look over these answered cases.
>>> print(df.to_string())
                                smiles_repr  property_name  measurement_units  obs_value
0  COc1ccc(C2CCN(C(=O)Oc3cccc(N4CCS(=O)(=O)CC4)c3)CC2)cc1           IC50                 µM    0.00261
1  Cc1noc(C2CCN(C(=O)Oc3cccc(N4CCS(=O)(=O)CC4)c3)CC2)n1           IC50                 µM       0.12
2  O=C(Oc1cccc(N2CCS(=O)(=O)CC2)c1)N1CCC(c2ccc(OC(F)(F)F)cc2)CC1           IC50                 µM      0.004
3  N#Cc1ccc(N2CCN(C(=O)Oc3cccc(N4CCS(=O)(=O)CC4)c3)CC2)cc1           IC50                 µM     0.0627

# input compound: `Cc1ccccc1C1CCN(C(=O)Oc2cccc(N3CCS(=O)(=O)CC3)c2)CC1` ; wanted: its IC50
0.0103

Attribution: ChEMBL document CHEMBL4359929
